Data origin: patent US20250368745A1

targetUnderTest: T1, cynomolgus IL-18BP (cynomolgus monkey)
T1 construct: also called cyno IL-18BP; cyIL-18BP
T1 chain: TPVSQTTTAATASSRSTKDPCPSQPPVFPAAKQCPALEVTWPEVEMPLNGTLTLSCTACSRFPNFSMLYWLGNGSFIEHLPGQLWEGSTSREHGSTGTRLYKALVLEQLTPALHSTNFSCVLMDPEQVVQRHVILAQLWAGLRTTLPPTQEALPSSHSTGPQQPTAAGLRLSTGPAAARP
testProtocol: BLI, apparent KD
recordedEndpoint: Kd (nM)
Answer with a number only, understood to be in nM.

Worked cases, Kd given:
binder="SA301a HC-V100aR (antibody, name in Kabat numbering, V domains shown, IgG1 kappa) VH: QVQLQESGPGLVKPSQTLSLTCTVSGYSITSDYNSHWIRQPPGKGLEWIGYIHYSGSTNYNPSLKSRVTISRDTSKNQFSLKLSSVTAADTAVYYCARNYGSIYRNYFDYWGQGTLVTVSS VL: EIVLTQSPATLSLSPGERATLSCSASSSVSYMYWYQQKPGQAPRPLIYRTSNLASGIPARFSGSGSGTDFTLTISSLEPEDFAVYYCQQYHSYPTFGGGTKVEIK" recordedendpoint=Kd resultvalue=0.08
binder="SA301a HC-I99R (antibody, name in Kabat numbering, V domains shown, IgG1 kappa) VH: QVQLQESGPGLVKPSQTLSLTCTVSGYSITSDYNSHWIRQPPGKGLEWIGYIHYSGSTNYNPSLKSRVTISRDTSKNQFSLKLSSVTAADTAVYYCARNYGSRYVNYFDYWGQGTLVTVSS VL: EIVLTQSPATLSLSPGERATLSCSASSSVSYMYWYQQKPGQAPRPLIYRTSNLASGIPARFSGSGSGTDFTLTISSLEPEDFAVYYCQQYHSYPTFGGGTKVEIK" recordedendpoint=Kd resultvalue=0.69

Query (binder): SA301a HC-I99D (antibody, name in Kabat numbering, V domains shown, IgG1 kappa) VH: QVQLQESGPGLVKPSQTLSLTCTVSGYSITSDYNSHWIRQPPGKGLEWIGYIHYSGSTNYNPSLKSRVTISRDTSKNQFSLKLSSVTAADTAVYYCARNYGSDYVNYFDYWGQGTLVTVSS VL: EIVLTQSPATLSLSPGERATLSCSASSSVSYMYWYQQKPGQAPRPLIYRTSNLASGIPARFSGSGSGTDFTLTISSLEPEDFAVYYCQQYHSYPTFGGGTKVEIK ; field requested: Kd 1.07
